Test system: Influenza A virus
protocol-notes: Antiviral activity against influenza A virus H1N1 assessed as inhibition of virus-induced cytopathic effect up to 100 uM after 48 hrs by crystal violet staining based assay
Assay type: functional, organism-based
Active and inactive are the calls of the source. No cut-off for these calls is given here.
reported-endpoint: inhibition

>  <chem-smiles>
C[C@H]1CC[C@@]2(C)C=CC(=O)C=C2C=C1C=O

>  <inhibition>
inactive

$$$$
>  <chem-smiles>
CC1=CC([C@@H](CCCO)C(=O)O)=C(C)CC[C@@H]1C

>  <inhibition>
inactive

$$$$
>  <chem-smiles>
C[C@H]1CC[C@]2(C)C(=CCC[C@H]2O)C=C1C(=O)O

>  <inhibition>
inactive

$$$$
>  <chem-smiles>
C[C@H]1CC[C@]2(C)C(=CCC[C@H]2O)C=C1CO

>  <inhibition>
inactive

$$$$
>  <chem-smiles>
CC1=CC([C@@H](CCC(=O)O)C(=O)O)=C(C)CC[C@@H]1C

>  <inhibition>
inactive

$$$$

Dear colleague, could you send me inhibition for each of the items below? Thanks.
1. C[C@H]1CC[C@@]2(C)C=CC(=O)C=C2C=C1CO
2. CC1=CC[C@@]2(C)[C@H](O)CC[C@@H](C(=O)O)[C@@H]2C=C1C
3. COC(OC)C1=CC2=CC(=O)C=C[C@]2(C)CC[C@@H]1C
4. C[C@H]1CC[C@@]2(C)C=CC(=O)C=C2C=C1C(=O)O

inactive
inactive
inactive
inactive

----------
Test system: K562
protocol-notes: Cytotoxicity against human K562 cells assessed as reduction in cell viability up to 100 uM after 72 hrs by CCK-8 assay
Format: functional, cell-based
Activity calls are given as the source filed them. No cut-off for these calls is given here.

>  <chem-smiles>
CC1=CC([C@@H](CCCO)C(=O)O)=C(C)CC[C@@H]1C

>  <Activity>
inactive

$$$$
>  <chem-smiles>
C[C@H]1CC[C@]2(C)C(=CCC[C@H]2O)C=C1CO

>  <Activity>
inactive

$$$$
>  <chem-smiles>
C[C@H]1CC[C@]2(C)C(=CCC[C@H]2O)C=C1C(=O)O

>  <Activity>
inactive

$$$$
